All figures here come from the DeepSol protein solubility set.

assay procedure: soluble on expression in E. coli; label from the status in PepcDB or PDB records
test readout: soluble on expression in E. coli

Consider the worked cases shown below.
sequence string: MTCVGDIMLAGSATPTLSRSGYDYPFAKTAQELRRGDIAMGNLEAPLTERGTEYRDKTYRFRTNPIAAAALKRAGFSVLTLANNHMMDYGNEGLQDTLATLSRHGIAHTGAGASLAEARREAVVSVRGKRIAFLAYSLTFPSEFYAGPNRPGTAPGYAPHVREDIRRAKAEADYVVVSFHWGAERAEFPKQYQTETARLAIDAGADAIIGHHPHVLQGIEFYRGKPILYSLGNFAFGSRSTAADRSVMARLTLSDEETSVELVPLNVLHRETRYQPGILAGRKGAEVIERLNRLSQPFGTVISGSAGRFRARTSGADQRIATRLEHHHHHH
soluble on expression in E. coli: not soluble
--
sequence string: MGCAEEKKTDVRWATFNIRYDNPQDSLNNWQYRKDRVCQFIKDHELDIVGMQEVLHNQFQDLRAGLPEYDGIGVGRDDGKTAGEYAPLFYRKDKYEVLDSNTFWLAENPDSVGMMGWDAVCVRIATWAKFKDKATGKIFMAVNTHFDHVGEEARRQSALLIIRKIKEIVGERPAVVTGDFNVTDASDAYETITTNEFVMKDAYKTAARVTGVDYTFHDFARIPAEDCEKIDFIFVTPQVLVKSCEIPAEVPEALLSDHNPQLADLELEHHHHHH
soluble on expression in E. coli: not soluble
--
sequence string: MGSDKIHHHHHHNKESTTECQTIDFSTLFDGQPEKIPLKEWAKSIHFVQLETNDSILIGNIRATILHKDKILVHHNNLSLFDLSGKFICNIGSKGGGPTEYSGINNAWTDDEGIHIFDIDNKIKTYNWNGKWIKTEPIPESNIKEVFPLASGNNIKAGYIQNITGNEPHKIYLFKDSTILAKIPYGKSFQKGEMTMVFYNECYPFHADGRTFFKEMFNDTIFSIDNQYQPIPRWYIELGKYKIAEDARYTLTDPRKSVFDNAATLTPIGKWDNKLFFSARANKQNYLFYYDLKEKKSNSIQISYPENSFAIPEEHSFIPKCMSDDGKYLISYEIQENDENPVIILAEK
soluble on expression in E. coli: not soluble
--
sequence string: TKDWDWNIEINLGHNKNKLKKLYKTKNAEGQFVEKPIIISDGTSIAGTAKRVLQPGYPCDTYYLKEWAGVNPENGAPQWYKTVENEDGTLSRQKTSNYSEADQVKCGSSSPDIFGGFSTVLRWKDIDLNAVFGYSVGGQIYNYSRQEYDSDGAYNDRNQMKLQKGWNRWEKPGDIATHPVASYSNTSKSNSSSSRYLEKNDYLKLRSLSIGYNLKLPQYYINNMRIFFTGENLFCVTNYSGVDPEIPASDGSVIGTALPSVYPTVRKFMFGLNLTF
soluble on expression in E. coli: not soluble

Continue with the next sequence.
**Q:** # get_value(readout='soluble on expression in E. coli', item= `MGSDKIHHHHHHMNRLKKLAWGELFMLGKQGKVRYVFTSSNTAGGYCSFMPELLAGLQKIFILKGPAGTGKSSFLRLLGQSMAEQGYEVEVWLSALNPLNPEGIYLPQMEAAVVNGSLPITIDPGYPAGRAEIINLEDYRDRKAAAEKGRDILELVQRVEKHHSKAYNILKSVIQTREELRQLSARHLDNSKFNQIFQELEARLAEEEVRERHYFANAVTADGIISYIEELSTPCRKRYIFKGPEGCGKSTMIAELARKAAEKGQFLEYYHSGLEPERLLMVIISSSQTALIDIGEMEINLKPCDLLVDLGKCLSDYDCSLLGMKNSQVYRNHEAMLLQVQDELENACLAVKKIKKINASFMDYDSIDKKRMEIEQELGSELSKCFCNGIESGL` )
**A:** not soluble
